Molecular target: L-phenylalanine dehydrogenase produced by Bacillus sp. SCRC-R79a (Lysinibacillus sphaericus, UniProt P23307)
Sequence (P23307 1-381): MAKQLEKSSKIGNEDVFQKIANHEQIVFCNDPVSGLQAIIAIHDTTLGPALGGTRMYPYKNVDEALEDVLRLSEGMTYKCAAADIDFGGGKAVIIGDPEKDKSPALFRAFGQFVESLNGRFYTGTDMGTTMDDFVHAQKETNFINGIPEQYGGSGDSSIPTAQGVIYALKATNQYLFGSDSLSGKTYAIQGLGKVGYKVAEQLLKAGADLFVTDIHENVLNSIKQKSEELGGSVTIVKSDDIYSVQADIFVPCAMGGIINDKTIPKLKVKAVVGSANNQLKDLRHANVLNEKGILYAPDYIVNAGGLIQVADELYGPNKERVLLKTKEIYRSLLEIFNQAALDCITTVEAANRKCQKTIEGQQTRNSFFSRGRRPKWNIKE
Experiment: Substrate and coenzyme specificity, oxidative deamination (Bacillus enzyme)
Assay type: biochemical
Design: inoculated with Bacillus sp; endogenous in cells; host or cells: Bacillus sp; enzyme purified in house
Settings: oxidative deamination; substrate concentration 10 mM; L-phenylalanine = 100; read-out: Relative activity (%)
Procedure: The substrate concentration is 10 mM except for the L-tyrosine concentration which is 1.4 mM.
activity at 10000 µM reference

smilesInput	valueUnit	activity at 10000 µM
N[C@@H](Cc1ccccc1)C(=O)O	%	100
CCC[C@H](N)C(=O)O	%	1.3
CCCC[C@H](N)C(=O)O	%	3.9
N[C@@H](Cc1c[nH]c2ccccc12)C(=O)O	%	1.6

* * *

Biological target: L-phenylalanine dehydrogenase produced by Sporosarcina ureae SCRC-R04 (Sporosarcina ureae)
Sequence (P97014 1-379): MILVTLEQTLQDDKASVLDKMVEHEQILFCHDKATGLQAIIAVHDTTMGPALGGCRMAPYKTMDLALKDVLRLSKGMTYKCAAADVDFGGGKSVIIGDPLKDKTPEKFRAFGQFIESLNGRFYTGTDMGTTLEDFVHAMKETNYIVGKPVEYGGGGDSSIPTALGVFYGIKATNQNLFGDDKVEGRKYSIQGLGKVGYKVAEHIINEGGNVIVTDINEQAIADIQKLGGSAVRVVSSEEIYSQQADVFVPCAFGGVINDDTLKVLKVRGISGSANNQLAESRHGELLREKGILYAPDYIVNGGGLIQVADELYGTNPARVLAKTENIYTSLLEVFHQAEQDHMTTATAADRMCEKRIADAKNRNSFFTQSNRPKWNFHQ
Assay: Substrate and coenzyme specificity, oxidative deamination (Sporosarcina enzyme)
Format: biochemical
Conditions: oxidative deamination
quantityName: action of the enzyme on the amino acid as substrate (in words)

compound	assayTarget	observedMeasurement
N[C@@H](Cc1ccc(O)cc1)C(=O)O [L--Tyrosine, L-tyrosine]	L-phenylalanine dehydrogenase produced by Sporosarcina ureae SCRC-R04 (Sporosarcina ureae)	act very weakly
N[C@@H](Cc1c[nH]c2ccccc12)C(=O)O [L--Tryptophan, L-tryptophan]	L-phenylalanine dehydrogenase produced by Sporosarcina ureae SCRC-R04 (Sporosarcina ureae)	act very weakly

* * *

Biological target: UniProt P23307
Test: Effect of metal ions and inhibitors on enzyme activity (Bacillus enzyme)
Type: biochemical
Design: inoculated with Bacillus sp; endogenous in cells; host or cells: Bacillus sp; enzyme purified in house
Settings: 1 mM; not added = 100
quantityName: Relative activity (%)

smilesInput	quantityName	observedMeasurement
[Ca+2]	Relative activity	92
[Mn+2]	Relative activity	95
[N-]=[N+]=[N-].[Na+]	Relative activity	102
[Mg+2]	Relative activity	99
[Ag+]	Relative activity	0
[Al+3]	Relative activity	99
[Ni+2]	Relative activity	100
[Ba+2]	Relative activity	93
[Li+]	Relative activity	95
[Pb+2]	Relative activity	53
[Na+]	Relative activity	93
[Zn+2]	Relative activity	96
[Cu+2]	Relative activity	85
[Cd+2]	Relative activity	102

* * *

Molecular target: L-phenylalanine dehydrogenase produced by Sporosarcina ureae SCRC-R04 (Sporosarcina ureae, UniProt P97014)
Assay: biochemical
Type: biochemical

compound	effect on enzyme activity (in words)
O=C(O)c1cc[c]([Hg][Cl])cc1	inhibited
[Hg+2]	inhibited
CCN1C(=O)C=CC1=O [N--Ethylmaleimide, N-ethylmaleimide]	inhibited
O=C(O)c1cc(SSc2ccc([N+](=O)[O-])c(C(=O)O)c2)ccc1[N+](=O)[O-]	inhibited
[Ag+]	inhibited

* * *

Target: L-phenylalanine dehydrogenase produced by Sporosarcina ureae SCRC-R04 (Sporosarcina ureae, UniProt P97014)
Experiment: biochemical
Format: biochemical
Conditions: 1 mM; not added = 100
Relative activity reference
quantityName: Relative activity (%)

smilesInput	observedMeasurement
[Ag+]	0
[Ni+2]	100
[Mn+2]	129
[Ba+2]	106
[Mg+2]	90
[Li+]	96
[Cu+2]	91
[Al+3]	153
[Pb+2]	81
[Ca+2]	100
[Na+]	92
[Zn+2]	99
[N-]=[N+]=[N-].[Na+]	100
[Cd+2]	70

* * *

Target: L-phenylalanine dehydrogenase produced by Bacillus sp. SCRC-R79a (Lysinibacillus sphaericus)
Sequence (P23307 1-381): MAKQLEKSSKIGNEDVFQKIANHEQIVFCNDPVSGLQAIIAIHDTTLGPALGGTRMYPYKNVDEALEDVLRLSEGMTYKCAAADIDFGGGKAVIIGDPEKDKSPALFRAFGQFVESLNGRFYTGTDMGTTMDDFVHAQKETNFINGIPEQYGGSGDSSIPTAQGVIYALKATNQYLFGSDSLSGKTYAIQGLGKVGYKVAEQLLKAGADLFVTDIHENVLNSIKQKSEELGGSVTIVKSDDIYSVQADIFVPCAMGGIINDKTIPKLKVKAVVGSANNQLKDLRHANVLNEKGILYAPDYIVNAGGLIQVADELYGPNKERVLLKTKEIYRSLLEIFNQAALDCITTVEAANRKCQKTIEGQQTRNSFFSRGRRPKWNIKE
Assay: Substrate and coenzyme specificity, oxidative deamination (Bacillus enzyme)
Assay type: biochemical
Parameters: inoculated with Bacillus sp; endogenous in cells; host or cells: Bacillus sp; enzyme purified in house
Conditions: oxidative deamination
quantityName: action of the enzyme on the amino acid as substrate (in words)

compound	observedMeasurement
N[C@@H](Cc1ccc(O)cc1)C(=O)O [L--Tyrosine, L-tyrosine]	acting strongly
N[C@@H](Cc1c[nH]c2ccccc12)C(=O)O [L--Tryptophan, L-tryptophan]	acting very weakly
CSCC[C@H](N)C(=O)O [L--Methionine, L-methionine]	acting very weakly
N[C@@H](Cc1ccccc1)C(=O)O [L--Phenylalanine, L-phenylalanine]	acting strongly

* * *

Molecular target: UniProtKB P23307
Test: Effect of metal ions and inhibitors on enzyme activity (Bacillus enzyme)
Type: biochemical
Design: inoculated with Bacillus sp; endogenous in cells; host or cells: Bacillus sp; enzyme purified in house
Settings: 1 mM; not added = 100; read-out: Relative activity
activity at 1000 µM reference
quantityName: activity at 1000 µM (%)

compound	assayTarget	quantityName	observedMeasurement
O=C(O)c1cc(SSc2ccc([N+](=O)[O-])c(C(=O)O)c2)ccc1[N+](=O)[O-]	UniProtKB P23307	activity at 1000 µM	74
c1cnc2c(c1)ccc1cccnc12	UniProtKB P23307	activity at 1000 µM	99
CCN1C(=O)C=CC1=O [N--Ethylmaleimide, N-ethylmaleimide]	UniProtKB P23307	activity at 1000 µM	162
c1ccc(-c2ccccn2)nc1	UniProtKB P23307	activity at 1000 µM	104

* * *

activity at 1000 µM reference
Biological target: L-phenylalanine dehydrogenase produced by Sporosarcina ureae SCRC-R04 (Sporosarcina ureae)
Sequence (P97014 1-379): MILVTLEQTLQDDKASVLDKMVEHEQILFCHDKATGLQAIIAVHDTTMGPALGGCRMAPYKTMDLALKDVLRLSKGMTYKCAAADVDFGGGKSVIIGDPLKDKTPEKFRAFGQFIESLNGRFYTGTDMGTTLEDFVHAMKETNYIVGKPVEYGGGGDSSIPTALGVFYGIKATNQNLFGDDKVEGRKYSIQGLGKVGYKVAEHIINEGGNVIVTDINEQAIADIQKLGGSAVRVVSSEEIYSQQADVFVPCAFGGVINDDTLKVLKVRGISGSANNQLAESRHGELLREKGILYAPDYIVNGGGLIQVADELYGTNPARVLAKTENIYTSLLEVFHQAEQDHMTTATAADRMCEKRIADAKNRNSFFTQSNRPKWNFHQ
Assay: biochemical
Assay type: biochemical
Conditions: 1 mM; not added = 100; read-out: Relative activity
quantityName: activity at 1000 µM (%)

compound	assayTarget	observedMeasurement
c1cnc2c(c1)ccc1cccnc12	L-phenylalanine dehydrogenase produced by Sporosarcina ureae SCRC-R04 (Sporosarcina ureae)	103
CCN1C(=O)C=CC1=O [N--Ethylmaleimide, N-ethylmaleimide]	L-phenylalanine dehydrogenase produced by Sporosarcina ureae SCRC-R04 (Sporosarcina ureae)	21
O=C(O)c1cc(SSc2ccc([N+](=O)[O-])c(C(=O)O)c2)ccc1[N+](=O)[O-]	L-phenylalanine dehydrogenase produced by Sporosarcina ureae SCRC-R04 (Sporosarcina ureae)	0
c1ccc(-c2ccccn2)nc1	L-phenylalanine dehydrogenase produced by Sporosarcina ureae SCRC-R04 (Sporosarcina ureae)	124

Recorded values, source patent US4849345A.
